methodSummary: LTI-291-003 multiple dose study in GBA-PD: plasma and CSF pharmacokinetics
Assay type: in vivo, human
measurementParameters: human, plasma, oral, 30 mg, 30 mg daily, dose 1, GBA-PD, geometric mean; read-out: AUC0-6
measurementType: AUC(0-t) (ng·h/mL)
Express the result in ng·h/mL but write the number alone.

Exercise: Entry CCCCCO[C@H]1CC[C@H](NC(=O)c2cnn3c(C)cc(C)nc23)CC1 [Compound A] : reported AUC(0-t) = ?
Solution: 2300

----------
methodSummary: LTI-291-002 multiple ascending dose study: plasma and CSF pharmacokinetics
Type: in vivo, human
measurementParameters: human, plasma, oral, after the 7th dose, across dose levels; read-out: mean t1/2
measurementType: half-life

Exercise: Entry CCCCCO[C@H]1CC[C@H](NC(=O)c2cnn3c(C)cc(C)nc23)CC1 : reported half-life = ?
Solution: 25.7 to 35.8 h

----------
methodSummary: LTI-291-002 multiple ascending dose study: plasma and CSF pharmacokinetics
Assay type: in vivo, human
measurementParameters: human, plasma, oral, 60 mg, 60 mg daily, dose 14, geometric mean
measurementType: AUC(0-inf)
Numeric answer plus unit only.

Exercise: Entry CCCCCO[C@H]1CC[C@H](NC(=O)c2cnn3c(C)cc(C)nc23)CC1 : reported AUC(0-inf) = ?
Solution: 130 µg·h/mL

----------
methodSummary: LTI-291-002 multiple ascending dose study: plasma and CSF pharmacokinetics
Assay type: in vivo, human
measurementParameters: human, plasma, oral, 60 mg, 60 mg daily, dose 1, geometric mean; read-out: AUC0-last
measurementType: AUC(0-t) (ng·h/mL)
Express the result in ng·h/mL but write the number alone.

Exercise: Entry CCCCCO[C@H]1CC[C@H](NC(=O)c2cnn3c(C)cc(C)nc23)CC1 : reported AUC(0-t) = ?
Solution: 19200

----------
methodSummary: LTI-291-001 single ascending dose study: plasma pharmacokinetics and food effect
Type: in vivo, human
measurementParameters: human, plasma, po, 90 mg, 90 mg fasted, single oral dose, median; read-out: Tmax
measurementType: Tmax (h)
Express the result in h but write the number alone.

Exercise: Entry CCCCCO[C@H]1CC[C@H](NC(=O)c2cnn3c(C)cc(C)nc23)CC1 [Compound A] : reported Tmax = ?
Solution: 2

----------
methodSummary: LTI-291-002 multiple ascending dose study: plasma and CSF pharmacokinetics
Assay type: in vivo, human
measurementParameters: human, plasma, oral, after the 14th dose, across dose levels; read-out: mean t1/2
measurementType: half-life

Exercise: Entry CCCCCO[C@H]1CC[C@H](NC(=O)c2cnn3c(C)cc(C)nc23)CC1 : reported half-life = ?
Solution: 1.34 to 3.12 days

----------
methodSummary: LTI-291-002 multiple ascending dose study: plasma and CSF pharmacokinetics
Assay type: in vivo, human
measurementParameters: human, plasma, oral, 3 mg, 3 mg daily, dose 7, geometric mean; read-out: AUC0-last
measurementType: AUC(0-t) (ng·h/mL)
Express the result in ng·h/mL but write the number alone.

Exercise: Entry CCCCCO[C@H]1CC[C@H](NC(=O)c2cnn3c(C)cc(C)nc23)CC1 : reported AUC(0-t) = ?
Solution: 2420

----------
methodSummary: LTI-291-003 multiple dose study in GBA-PD: plasma and CSF pharmacokinetics
Assay type: in vivo, human
measurementParameters: human, plasma, oral, 30 mg, 30 mg daily, dose 28, GBA-PD, geometric mean; read-out: AUC0-last
measurementType: AUC(0-t) (ng·h/mL)
Express the result in ng·h/mL but write the number alone.

Exercise: Entry CCCCCO[C@H]1CC[C@H](NC(=O)c2cnn3c(C)cc(C)nc23)CC1 : reported AUC(0-t) = ?
Solution: 7230

Data origin, for the record: patent US20260240851A1
